assay: Pharmacokinetic interaction between BP and macitentan in rats (plasma macitentan and ACT-132577); format: in vivo, Sprague-Dawley rats; conditions: Sprague-Dawley, rat, plasma, po, 20 mg/kg, macitentan in plasma, macitentan 20 mg/kg oral, experimental group (BP 10 mg/kg daily 7 days)
readoutType: Tmax (h)
Please respond with the number in h and leave the unit unwritten.

Q: Reported Tmax for `CCCNS(=O)(=O)Nc1ncnc(OCCOc2ncc(Br)cn2)c1-c1ccc(Br)cc1` : what is it?
Ans: 2.5

###

target: human liver microsomes (HLMs) (Homo sapiens, UniProt P08684); assay: Inhibition of macitentan metabolism (ACT-132577 formation) by bergapten and Michaelis-Menten kinetics in human liver microsomes; type: in vitro ADME; conditions: human, microsomes
Sequence (P08684 2-503): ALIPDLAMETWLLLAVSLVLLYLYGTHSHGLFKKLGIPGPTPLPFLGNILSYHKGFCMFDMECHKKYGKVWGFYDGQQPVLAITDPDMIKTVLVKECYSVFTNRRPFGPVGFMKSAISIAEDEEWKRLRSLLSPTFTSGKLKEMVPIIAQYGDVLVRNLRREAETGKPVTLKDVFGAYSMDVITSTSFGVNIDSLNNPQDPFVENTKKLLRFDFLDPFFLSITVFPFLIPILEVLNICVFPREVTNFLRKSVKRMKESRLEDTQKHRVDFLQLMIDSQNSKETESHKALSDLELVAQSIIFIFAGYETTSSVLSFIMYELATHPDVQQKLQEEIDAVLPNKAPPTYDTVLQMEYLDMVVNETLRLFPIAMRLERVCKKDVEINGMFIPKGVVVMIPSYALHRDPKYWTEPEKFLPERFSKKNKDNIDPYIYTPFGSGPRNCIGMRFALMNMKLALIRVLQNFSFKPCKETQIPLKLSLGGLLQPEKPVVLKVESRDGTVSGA
readoutType: Ki (µM)
Please respond with the number in µM and leave the unit unwritten.

Q: Reported Ki for COc1c2ccoc2cc2oc(=O)ccc12 [BP, 5-methoxypsoralen] : what is it?
Ans: 0.12

###

assay: Pharmacokinetic interaction between BP and macitentan in rats (plasma macitentan and ACT-132577); format: in vivo, Sprague-Dawley rats; settings: Sprague-Dawley, rat, plasma, po, 20 mg/kg, macitentan in plasma, macitentan 20 mg/kg oral, control group, read-out: CLz/F (converted)
readoutType: CL/F (L/h/kg)
Please respond with the number in L/h/kg and leave the unit unwritten.

Q: Reported CL/F for `CCCNS(=O)(=O)Nc1ncnc(OCCOc2ncc(Br)cn2)c1-c1ccc(Br)cc1` : what is it?
Ans: 2.6

###

Test: Pharmacokinetic interaction between BP and macitentan in rats (plasma macitentan and ACT-132577)
Type: in vivo, Sprague-Dawley rats
Conditions: Sprague-Dawley, rat, plasma, po, 20 mg/kg, macitentan in plasma, macitentan 20 mg/kg oral, experimental group (BP 10 mg/kg daily 7 days), read-out: MRT(0-∞)
Protocol: The concentrations of macitentan and ACT-132577 were determined by UPLC-MS/MS, which consisted of an Acquity I-class UPLC system (Waters Corp., Milford, MA, United States) and a Xevo TQD triple quadrupole mass spectrometer (Waters Corporation, Milford, MA, United States) equipped with an electrospray ionization source. […] All assays were performed in triplicate, and the results are expressed as mean ± standard deviation. […]
readoutType: MRT inf (h)
Please respond with the number in h and leave the unit unwritten.

Q: Reported MRT inf for `CCCNS(=O)(=O)Nc1ncnc(OCCOc2ncc(Br)cn2)c1-c1ccc(Br)cc1` : what is it?
Ans: 6.12

###

assay: Pharmacokinetic interaction between BP and macitentan in rats (plasma macitentan and ACT-132577); type: in vivo, Sprague-Dawley rats; settings: Sprague-Dawley, rat, plasma, po, 20 mg/kg, macitentan in plasma, macitentan 20 mg/kg oral, experimental group (BP 10 mg/kg daily 7 days), read-out: t1/2z (converted)
readoutType: half-life (h)
Please respond with the number in h and leave the unit unwritten.

Q: Reported half-life for `CCCNS(=O)(=O)Nc1ncnc(OCCOc2ncc(Br)cn2)c1-c1ccc(Br)cc1` : what is it?
Ans: 5.07

###

target: Rat liver microsomes (RLMs); assay: Inhibition of macitentan metabolism (ACT-132577 formation) by bergapten and Michaelis-Menten kinetics in rat liver microsomes; details: RLMs, competitive inhibition; read-out: Ki of BP on macitentan metabolism
readoutType: pKi
Lab note — pKi values are minus log10 of concentrations in M.

Q: Notebook entry, Rat liver microsomes (RLMs) assay: pKi of `COc1c2ccoc2cc2oc(=O)ccc12` = ?
Ans: 5.86
